These data points were gathered from ChEMBL document CHEMBL1153726.

# assay: Antitumor activity against human KB3 cells after 96 hrs by MTT assay
# Format: functional, cell-based
# condition set: KB3, 96 h
pIC50: −log10 of the molar value.
property: pIC50

For "C=C(C)[C@H]1CC=C(C)[C@H]2[C@@H]1[C@H](c1ccccc1Br)O[C@@H]2C(=O)OCC" , what is its reported pIC50?
< 4.00

Another compound to look at: "C=C(C)[C@H]1CC=C(C)[C@@]2(O)[C@@H]1[C@H](c1ccccc1Br)O[C@@H]2C(=O)OCC1CC1"
4.30

Another compound to look at: "C=C(C)[C@H]1CC=C(C)[C@@]2(O)[C@@H]1[C@H](c1ccccc1Br)O[C@@H]2C(=O)O"
< 4.00
